Test system: IL-1β
Experimental details: Whole bovine blood assay, LPS-induced IL-1β (inhibition / overstimulation)
Format: cell-based
Assay conditions: drug concentration giving overstimulation (OS) of LPS-induced IL-1β, top concentration 250 μM
Listed here are molecules together with their documented minimal effective concentration.
Measured parameter: minimal effective concentration (µM)

Structure notation	Measurement
CC[C@H]1OC(=O)[C@H](C)[C@@H](O[C@H]2C[C@@](C)(OC)[C@](O)(CN3CCCCC3)[C@H](C)O2)[C@H](C)[C@@H](O[C@@H]2O[C@H](C)C[C@H](N(C)S(=O)(=O)Nc3ccccc3)[C@H]2O)[C@](C)(O)C[C@@H](C)CN(CC)[C@H](C)[C@@H](O)[C@]1(C)O	10
CC[C@H]1OC(=O)[C@H](C)[C@@H](O[C@H]2C[C@@](C)(OC)[C@](O)(CNCCc3ccncc3)[C@H](C)O2)[C@H](C)[C@@H](O[C@@H]2O[C@H](C)C[C@H](N(C)S(=O)(=O)c3ccc(Cl)cc3)[C@H]2O)[C@](C)(O)C[C@@H](C)CN[C@H](C)[C@@H](O)[C@]1(C)O	12
CCCNC[C@]1(O)[C@H](C)O[C@@H](O[C@H]2[C@H](C)[C@@H](O[C@@H]3O[C@H](C)C[C@H](N(C)S(=O)(=O)c4nccn4C)[C@H]3Oc3ccccn3)[C@](C)(O)C[C@@H](C)CN[C@H](C)[C@@H](O)[C@](C)(O)[C@@H](CC)OC(=O)[C@@H]2C)C[C@@]1(C)OC	6

----------
Test system: IL-1β
Experimental details: Whole bovine blood assay, LPS-induced IL-1β (inhibition / overstimulation)
Type: cell-based
Assay conditions: drug concentration giving overstimulation (OS) of LPS-induced IL-1β, top concentration 250 μM
Measured parameter: minimal effective concentration (µM)

Structure notation	Target desc	Measured parameter	Measurement
CCCNC[C@]1(O)[C@H](C)O[C@@H](O[C@H]2[C@H](C)[C@@H](O[C@@H]3O[C@H](C)C[C@H](N(C)S(=O)(=O)N(C)Cc4ccc(Cl)cc4)[C@H]3O)[C@](C)(O)C[C@@H](C)CN[C@H](C)[C@@H](O)[C@](C)(O)[C@@H](CC)OC(=O)[C@@H]2C)C[C@@]1(C)OC	IL-1β	minimal effective concentration	6
CCCNC[C@]1(O)[C@H](C)O[C@@H](O[C@H]2[C@H](C)[C@@H](O[C@@H]3O[C@H](C)C[C@H](N(C)S(C)(=O)=O)[C@H]3O)[C@](C)(O)C[C@@H](C)CN[C@H](C)[C@@H](O)[C@](C)(O)[C@@H](CC)OC(=O)[C@@H]2C)C[C@@]1(C)OC	IL-1β	minimal effective concentration	57
CC[C@H]1OC(=O)[C@H](C)[C@@H](O)[C@H](C)[C@@H](O[C@@H]2O[C@H](C)C[C@H](N(C)S(=O)(=O)c3ccccc3)[C@H]2Oc2ccc(F)c(C(F)(F)F)c2)[C@](C)(O)C[C@@H](C)CN(C)[C@H](C)[C@@H](O)[C@]1(C)O	IL-1β	minimal effective concentration	40
CC(=O)O.CCCN1C[C@H](C)C[C@@](C)(O)[C@H](O[C@@H]2O[C@H](C)C[C@H](N(C)S(=O)(=O)Nc3ccc(C(F)(F)F)cc3)[C@H]2O)[C@@H](C)[C@H](O[C@H]2C[C@@](C)(OC)[C@](O)(CN3CCCCC3)[C@H](C)O2)[C@@H](C)C(=O)O[C@H](CC)[C@@](C)(O)[C@H](O)[C@H]1C	IL-1β	minimal effective concentration	12
